From: paper PMC5075789

- Measured Target: hGPR110-HA (human GPR110, ADGRF1) (Homo sapiens, UniProt Q5T601)
- Construct: full-length ORF, 910 residues, C-terminal HA tag kept, expressed in HEK293 (CRE-luc2P HEK293 for cAMP); immunopurified with anti-HA for MST; glycosylated, about 130 and 110 kD
- Sequence (Q5T601 20-566): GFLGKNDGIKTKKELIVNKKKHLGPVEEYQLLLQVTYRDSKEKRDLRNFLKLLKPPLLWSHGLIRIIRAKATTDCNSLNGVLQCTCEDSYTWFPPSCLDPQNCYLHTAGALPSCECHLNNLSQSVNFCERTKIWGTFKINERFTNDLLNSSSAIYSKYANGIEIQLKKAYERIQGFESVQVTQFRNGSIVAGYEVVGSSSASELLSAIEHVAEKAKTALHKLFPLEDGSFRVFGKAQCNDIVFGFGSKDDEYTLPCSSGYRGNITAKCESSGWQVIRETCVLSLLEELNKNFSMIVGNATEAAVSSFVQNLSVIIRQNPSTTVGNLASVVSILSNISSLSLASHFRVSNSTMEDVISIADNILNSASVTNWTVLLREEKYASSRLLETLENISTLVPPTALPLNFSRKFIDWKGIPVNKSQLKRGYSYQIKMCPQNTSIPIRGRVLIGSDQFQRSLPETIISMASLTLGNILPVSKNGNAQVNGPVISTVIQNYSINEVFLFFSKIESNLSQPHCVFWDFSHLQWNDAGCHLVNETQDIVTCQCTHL
- Sequence (Q5T601 567-910): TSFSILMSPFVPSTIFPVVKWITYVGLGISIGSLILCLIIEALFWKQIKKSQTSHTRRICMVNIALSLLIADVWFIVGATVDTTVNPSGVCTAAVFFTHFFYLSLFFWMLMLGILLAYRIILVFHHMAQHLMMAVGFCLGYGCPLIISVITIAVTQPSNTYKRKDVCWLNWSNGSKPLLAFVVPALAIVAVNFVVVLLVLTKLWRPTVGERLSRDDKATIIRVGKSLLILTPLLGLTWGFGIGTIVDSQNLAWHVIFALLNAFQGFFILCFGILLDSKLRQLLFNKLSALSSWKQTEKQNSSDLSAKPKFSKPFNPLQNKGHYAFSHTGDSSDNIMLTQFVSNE
- Measurement Protocol: microscale thermophoresis
- Test Context: read-out: apparent Kd

{"columns": ["Compound", "Kd"],
 "data": [
  ["CC/C=C\\C/C=C\\C/C=C\\C/C=C\\C/C=C\\C/C=C\\CCC(=O)NCCNC(=O)CCCCC1=C2C(C)=CC(C)=[N+]2[B-](F)(F)n2c(C)cc(C)c21 [bodipy-synaptamide]", "~20 nM"]
]}
